Experiment: qHTS Assay for Lipid Storage Modulators in Drosophila S3 Cells
Settings: BODIPY lipid droplet fluorescence, 18-24 h, cells fed with added oleic acid; series mostly up to 46.1 µM
Among all 320,000 compounds or so, about 2,100 (0.66%) were called active. Another 53% or so got no clear call; they are omitted. Calls come from the whole dose curve; as a rule, active = well fitted inhibition curve with a large enough effect in the signal ratio, with a control signal flat (not every such curve was filed as active); inconclusive = small, poorly fitted or top-dose-only effect, or effect the other way, or a change in a side signal; inactive = flat fitted curve, though single readings scatter; the % refers to the signal ratio. The full list was thinned out, with actives kept by preference.
Select the correct class. Options are y = active, n = inactive and nothing else.

For this molecule, state the assay outcome: CCN(CC)C(c1ccc(F)cc1)c1nnnn1CC1CCCO1 (stereo unspecified)
y

For this molecule, state the assay outcome: CC(C)Sc1nnc(NC(=O)c2ccc3c(c2)OCO3)s1
n

For this molecule, state the assay outcome: COc1cccc(CNC(=O)C2CCN(S(=O)(=O)N3CCC4(CC3)OCCO4)CC2)c1
n

For this molecule, state the assay outcome: CCN(CC)C(c1ccc(F)cc1)c1nnnn1C1CCCCC1 (stereo unspecified)
n

For this molecule, state the assay outcome: Cc1ccc(CN2CCN(Cc3c[nH]c4ccccc34)CC2CCO)o1 (stereo unspecified)
n

For this molecule, state the assay outcome: CC(=C/c1ccccc1)/C=N/NC(=O)c1ccccn1
n
